target: CDK2/Cyclin E1 full length (Homo sapiens (Human)); test: CDK2/Cyclin E1 full length mobility shift assay
Readout Label: log10 of Ki (log10 of the value in nM)
In our notation, the value equals log10 of Ki in nM.

{"columns": ["Compound", "Readout Label", "Reported Value"],
 "data": [
  ["CCCNC(=O)O[C@@H]1CC[C@H](c2cc(NC(=O)Cc3cc(OC)ccc3S(C)(=O)=O)n[nH]2)C1", "log10 of Ki", -0.49]
]}

Please look at the items below and tell me log10 of Ki for each one, in order.
1. CC1(C)CCCN1C(=O)O[C@@H]1CC[C@H](c2cc(NC(=O)Cc3cnco3)n[nH]2)C1
2. Cc1cc(CC(=O)Nc2cc([C@H]3CC[C@@H](OC(=O)N(C)C(C)C)C3)[nH]n2)on1

[-0.64, -0.31]

Please look at the items below and tell me log10 of Ki for each one, in order.
1. CC[C@H](C)NC(=O)O[C@@H]1CC[C@H](c2cc(NC(=O)Cc3cn(CC(F)(F)F)nn3)n[nH]2)C1
2. CC[C@H](C)NC(=O)O[C@@H]1CC[C@H](c2cc(NC(=O)Cc3cnc(C)cn3)n[nH]2)C1
3. Cc1ncc(CC(=O)Nc2cc([C@H]3CC[C@@H](OC(=O)NC4(C)CCCC4)C3)[nH]n2)s1

0.25
-0.48
-0.89

Fill in: log10 of Ki of CC1(NC(=O)O[C@@H]2CC[C@H](c3cc(NC(=O)Cc4cnc(C(F)(F)F)cn4)n[nH]3)C2)CCOC1 (single isomer, unassigned) [Example 493] is ___
-0.01

* * *

target: CDK2/Cyclin E1 full length (Homo sapiens (Human)); assay: CDK2/Cyclin E1 full length mobility shift assay; format: biochemical
Readout Label: Ki (nM)
Answers are plain numbers, in nM.

Answered examples (6):
{"columns": ["Molecule", "Ki, nM"],
 "data": [
  ["CC[C@H](C)NC(=O)O[C@@H]1CC[C@H](c2cc(NC(=O)c3cc(COC)nn3C)n[nH]2)C1", 0.27],
  ["CCN(C)C(=O)O[C@H]1CC[C@@H](c2cc(NC(=O)Cc3ccnc(OC)c3)n[nH]2)C1", 1.04],
  ["COc1cc(CC(=O)Nc2cc([C@H]3CC[C@@H](OC(=O)N4[C@@H](C)C[C@@H]4C)C3)[nH]n2)ccn1", 0.06],
  ["CC1(NC(=O)O[C@@H]2CC[C@H](c3cc(NC(=O)Cc4ccccn4)n[nH]3)C2)CC1", 0.54],
  ["CC[C@H](C)NC(=O)O[C@@H]1CC[C@H](c2cc(NC(=O)Cc3cnn(C)n3)n[nH]2)C1", 0.55],
  ["COc1cc(CC(=O)Nc2cc([C@H]3CC[C@@H](OC(=O)NC(C)C(C)(F)F)C3)[nH]n2)ccn1 (single isomer, unassigned) [Example 393]", 0.97]
]}

# evaluate next
Enter reported Ki observed with CDK2/Cyclin E1 full length (Homo sapiens (Human)) for Cc1cnc(CC(=O)Nc2cc([C@H]3CC[C@@H](OC(=O)NC4(C)CCOCC4)C3)[nH]n2)o1
1.46

* * *

target: CDK2/Cyclin E1 full length (Homo sapiens (Human), UniProt P24941); assay: CDK2/Cyclin E1 full length mobility shift assay
Exercise: state measured Ki for each of the molecules provided.
One number for each entry, in nM.

Answered examples (6):
{"columns": ["Molecule", "Readout Label", "Result Unit", "Reported Value"],
 "data": [
  ["COc1cc(CC(=O)Nc2cc([C@@H]3CC[C@H](OC(=O)N[C@H]4CC[C@](C)(O)CC4)C3)[nH]n2)ccn1", "Ki", "nM", 1.25],
  ["CC1(NC(=O)O[C@@H]2CC[C@H](c3cc(NC(=O)Cc4ccon4)n[nH]3)C2)CC1", "Ki", "nM", 0.36],
  ["COc1cnc(CC(=O)Nc2cc([C@H]3CC[C@@H](OC(=O)NCCC(F)(F)F)C3)[nH]n2)s1", "Ki", "nM", 2.33],
  ["C[C@H]1C[C@H](C)N1C(=O)O[C@@H]1CC[C@H](c2cc(NC(=O)Cc3cnn(C)c3)n[nH]2)C1", "Ki", "nM", 0.32],
  ["CC(C)(C)NC(=O)O[C@@H]1CC[C@H](c2cc(NC(=O)Cc3cc(C(F)F)ccn3)n[nH]2)C1", "Ki", "nM", 0.41],
  ["CC(CO)CNC(=O)O[C@@H]1CC[C@H](c2cc(NC(=O)Cc3cc(F)cc(F)c3)n[nH]2)C1 (single isomer, unassigned) [Example 538]", "Ki", "nM", 2.72]
]}

# evaluate next
Fill in: Ki of CC[C@H](C)NC(=O)O[C@@H]1CC[C@H](c2cc(NC(=O)c3ccc(C)nc3)n[nH]2)C1 is ___
0.54

* * *

target: CDK2/Cyclin E1 full length (Homo sapiens (Human), UniProt P24941); experiment: CDK2/Cyclin E1 full length mobility shift assay
Readout Label: pKi
One number for each entry, as −log10 of the molar value.

{"columns": ["Compound", "Reported Value"],
 "data": [
  ["CC[C@H](C)NC(=O)O[C@@H]1CC[C@H](c2cc(NC(=O)Cc3ccccc3S(C)(=N)=O)n[nH]2)C1 (single isomer, unassigned) [Example 368]", 9.39],
  ["COc1ccc(CC(=O)Nc2cc([C@H]3CC[C@@H](OC(=O)N4C[C@@H](O)[C@@H]4C)C3)[nH]n2)cn1 [Example 615]", 8.70],
  ["Cc1cnc(CC(=O)Nc2cc([C@H]3CC[C@@H](OC(=O)NC(C)CC(F)(F)F)C3)[nH]n2)cn1 (single isomer, unassigned) [Example 73]", 8.64]
]}

Please look at the items below and tell me pKi for each one, in order.
1. CC1(NC(=O)O[C@@H]2CC[C@H](c3cc(NC(=O)Cc4ccno4)n[nH]3)C2)CCOC1 (single isomer, unassigned) [Example 473]
2. COc1ccc(CC(=O)Nc2cc([C@H]3CC[C@@H](OC(=O)NC(C)C)C3)[nH]n2)cc1 [Example 275]
3. CC[C@H](C)NC(=O)O[C@@H]1CC[C@H](c2cc(NC(=O)Cc3cc(C)on3)n[nH]2)C1 [Example 332]
4. Cc1cc(CC(=O)Nc2cc([C@H]3CC[C@@H](OC(=O)NC4(C)CC4)C3)[nH]n2)on1 [Example 15]
5. CC1(NC(=O)O[C@@H]2CC[C@H](c3cc(NC(=O)Cc4cc(C(F)F)ccn4)n[nH]3)C2)CC1 [Example 443]
6. CC[C@H](C)NC(=O)O[C@@H]1CC[C@H](c2cc(NC(=O)c3ccnn3C)n[nH]2)C1 [Example 42]
7. CC1(NC(=O)O[C@@H]2CC[C@H](c3cc(NC(=O)Cc4ccc(C(F)(F)F)cn4)n[nH]3)C2)CC1 [Example 445]
8. COc1ccc(CC(=O)Nc2cc([C@H]3CC[C@@H](OC(=O)N4C[C@H](OC)[C@H]4C)C3)[nH]n2)cn1 [Example 620]

[9.44, 9.31, 8.98, 9.77, 9.44, 10.30, 9.22, 8.41]

* * *

molecular target: CDK2/Cyclin E1 full length (Homo sapiens (Human), UniProt P24941); assay: CDK2/Cyclin E1 full length mobility shift assay
pKi: −log10 of the molar value.
Classification field: enter Satisfied for pKi values not below 9, Not satisfied for values below it.

Please review the entries below; each comes with its answer.
{"columns": ["Cpd Smiles", "System Name", "Answer Label"],
 "data": [
  ["Cc1cnc(CC(=O)Nc2cc([C@H]3CC[C@@H](OC(=O)NCCC(F)(F)F)C3)[nH]n2)cn1", "CDK2/Cyclin E1 full length (Homo sapiens (Human), UniProt P24941)", "Not satisfied"],
  ["CC1(NC(=O)O[C@@H]2CC[C@H](c3cc(NC(=O)Cc4ccno4)n[nH]3)C2)CC1", "CDK2/Cyclin E1 full length (Homo sapiens (Human), UniProt P24941)", "Satisfied"],
  ["CC[C@H](C)NC(=O)O[C@@H]1CC[C@H](c2cc(NC(=O)Cc3ccccc3S(=O)(=O)NC)n[nH]2)C1", "CDK2/Cyclin E1 full length (Homo sapiens (Human), UniProt P24941)", "Satisfied"]
]}

Now for a further molecule.
Hi team, for Cc1cc(CC(=O)Nc2cc([C@H]3CC[C@@H](OC(=O)N4CCOCC4(C)C)C3)[nH]n2)on1 , is the recorded pKi at or above 9?
Satisfied

* * *

Exercise: state measured pKi for each of the compounds provided.
target: CDK2/Cyclin E1 full length (Homo sapiens (Human)); experiment: CDK2/Cyclin E1 full length mobility shift assay; assay type: biochemical
One number for each entry, as −log10 of the molar value.

Answered examples (3):
{"columns": ["Cpd Smiles", "Reported Value"],
 "data": [
  ["CC[C@H](C)NC(=O)O[C@@H]1CC[C@H](c2cc(NC(=O)Cc3cc(O)ncc3S(C)(=O)=O)n[nH]2)C1", 9.70],
  ["Cn1ncc(CC(=O)Nc2cc([C@H]3CC[C@@H](OC(=O)NC(C)(C)C)C3)[nH]n2)n1", 9.54],
  ["CC[C@H](C)NC(=O)O[C@@H]1CC[C@H](c2cc(NC(=O)c3cncn3C)n[nH]2)C1", 9.20]
]}

# evaluate next
Fill in: pKi of Cc1cc(CC(=O)Nc2cc([C@@H]3CC[C@H](OC(=O)NC(C)C)C3)[nH]n2)no1 is ___
9.01

From: patent US11014911B2
